Values from the RNAGym collection of RNA variant scans (doi:10.7554/elife.80360)

B1: HDV Ribozyme (parent)
chain: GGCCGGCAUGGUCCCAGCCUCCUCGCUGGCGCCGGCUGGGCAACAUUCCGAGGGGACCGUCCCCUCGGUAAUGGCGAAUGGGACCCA

Variants of: B1
Assay protocol: self-cleavage, relative activity (ratio to wild type); higher = more cleavage; co-transcriptional

# Residue change, self-cleavage
measured = [
    ("U46G G50C", 0.429),
    ("G17C A70U", 0.277),
    ("C18U G53C", 0.607),
    ("A43G A45G", 0.554),
    ("G1U G10U", 0.336),
    ("U47A A78U", 0.295),
    ("U20G C22U", 0.145),
    ("A16C C49A", 0.609),
    ("U60A G74C", 0.225),
    ("C75G U79C", 0.113),
    ("G55C G82C", 0.277),
    ("A16U G55A", 0.784),
    ("G54A U79G", 0.643),
    ("C49A A87C", 0.95),
    ("U60A C84G", 0.475),
    ("G5A G53U", 0.309),
    ("G10U G76C", 0.963),
    ("C26A A45G", 0.978),
    ("C19U A78U", 0.111),
    ("U60A A71G", 1.12),
    ("U60C C64U", 0.895),
    ("G39U G67A", 0.698),
]
